Target: Nav 1.7 (Homo sapiens (Human), UniProt Q15858)
Sequence (Q15858 whole entry): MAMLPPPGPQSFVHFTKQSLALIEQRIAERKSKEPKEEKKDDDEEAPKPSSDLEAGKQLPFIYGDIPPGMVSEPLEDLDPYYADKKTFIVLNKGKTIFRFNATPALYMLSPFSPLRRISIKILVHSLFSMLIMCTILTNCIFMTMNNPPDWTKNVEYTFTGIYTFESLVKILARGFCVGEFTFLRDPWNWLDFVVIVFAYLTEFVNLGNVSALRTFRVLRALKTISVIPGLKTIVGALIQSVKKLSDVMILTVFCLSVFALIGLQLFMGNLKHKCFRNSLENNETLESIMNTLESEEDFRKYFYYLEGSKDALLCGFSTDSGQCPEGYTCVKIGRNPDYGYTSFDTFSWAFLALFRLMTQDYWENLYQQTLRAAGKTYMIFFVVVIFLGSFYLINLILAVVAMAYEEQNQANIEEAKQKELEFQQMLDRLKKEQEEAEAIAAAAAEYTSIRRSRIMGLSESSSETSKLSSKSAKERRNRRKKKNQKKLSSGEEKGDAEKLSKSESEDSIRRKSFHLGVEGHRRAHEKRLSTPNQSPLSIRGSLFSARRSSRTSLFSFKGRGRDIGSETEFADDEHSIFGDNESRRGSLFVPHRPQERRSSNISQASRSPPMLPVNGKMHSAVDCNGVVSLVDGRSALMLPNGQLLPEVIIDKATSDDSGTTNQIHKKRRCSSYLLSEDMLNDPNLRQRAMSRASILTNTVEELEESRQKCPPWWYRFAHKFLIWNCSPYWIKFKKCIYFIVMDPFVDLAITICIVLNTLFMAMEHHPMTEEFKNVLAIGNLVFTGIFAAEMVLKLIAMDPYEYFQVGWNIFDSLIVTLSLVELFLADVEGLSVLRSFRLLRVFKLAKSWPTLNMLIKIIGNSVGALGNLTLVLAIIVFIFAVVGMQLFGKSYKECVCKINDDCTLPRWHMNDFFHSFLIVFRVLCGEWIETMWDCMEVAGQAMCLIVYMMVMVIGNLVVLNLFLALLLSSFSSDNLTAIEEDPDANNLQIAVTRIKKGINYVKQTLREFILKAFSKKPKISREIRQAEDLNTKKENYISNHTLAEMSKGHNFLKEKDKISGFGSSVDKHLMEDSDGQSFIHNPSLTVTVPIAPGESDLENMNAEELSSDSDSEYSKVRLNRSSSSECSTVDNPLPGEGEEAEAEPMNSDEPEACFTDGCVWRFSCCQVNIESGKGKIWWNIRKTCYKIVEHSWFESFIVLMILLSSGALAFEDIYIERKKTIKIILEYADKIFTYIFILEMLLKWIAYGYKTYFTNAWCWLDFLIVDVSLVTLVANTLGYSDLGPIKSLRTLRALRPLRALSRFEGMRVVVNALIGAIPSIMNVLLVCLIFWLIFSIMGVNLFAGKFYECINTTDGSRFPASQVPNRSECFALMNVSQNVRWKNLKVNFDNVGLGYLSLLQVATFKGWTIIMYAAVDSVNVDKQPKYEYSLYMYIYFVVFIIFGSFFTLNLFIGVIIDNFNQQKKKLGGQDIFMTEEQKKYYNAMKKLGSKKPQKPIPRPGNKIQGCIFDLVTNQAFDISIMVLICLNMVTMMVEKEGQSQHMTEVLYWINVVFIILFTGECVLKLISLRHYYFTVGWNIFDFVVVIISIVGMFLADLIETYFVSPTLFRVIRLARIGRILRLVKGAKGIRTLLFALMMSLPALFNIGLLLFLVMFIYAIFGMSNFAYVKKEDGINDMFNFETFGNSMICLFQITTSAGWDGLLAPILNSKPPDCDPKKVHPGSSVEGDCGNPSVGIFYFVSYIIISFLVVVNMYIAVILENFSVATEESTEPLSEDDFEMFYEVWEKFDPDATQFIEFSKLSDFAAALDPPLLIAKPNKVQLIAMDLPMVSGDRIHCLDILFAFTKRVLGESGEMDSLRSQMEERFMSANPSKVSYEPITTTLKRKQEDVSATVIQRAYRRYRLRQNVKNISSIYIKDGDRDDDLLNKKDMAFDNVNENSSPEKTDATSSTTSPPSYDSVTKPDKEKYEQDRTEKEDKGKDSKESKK
Test: in-vitro Nav 1.7 PX data
Type: cell-based
Conditions: PatchXpress (PX), in vitro
Note to self: IC50 under 70 nM means true (1), ties and anything higher get false (0).

Below are worked cases with known answers.
{"entry-smiles": "COc1cc(-c2cccc(Cl)c2)c(F)cc1-c1nccc2cc(S(=O)(=O)Nc3ncccn3)ccc12", "discrete-label": "false (0)"}
{"entry-smiles": "COc1cc(-c2ccc(F)c(Cl)c2)c(C#N)cc1-c1nccc2cc(S(=O)(=O)Nc3ccon3)ccc12", "discrete-label": "true (1)"}
{"entry-smiles": "COc1nc(OCC(C)(C)C)ccc1-c1nccc2cc(S(=O)(=O)Nc3ccncn3)ccc12", "discrete-label": "false (0)"}
{"entry-smiles": "COc1nc(N2CCC(F)(F)CC2)ccc1-c1nccc2cc(S(=O)(=O)Nc3ccncn3)ccc12", "discrete-label": "false (0)"}
{"entry-smiles": "COc1cc(-c2ccc(Cl)c(C)c2)c(F)cc1-c1nccc2cc(S(=O)(=O)Nc3ccon3)ccc12", "discrete-label": "true (1)"}
{"entry-smiles": "COc1cc(-c2cc(F)cnc2OC)c(F)cc1-c1nccc2cc(S(=O)(=O)Nc3ccsn3)ccc12", "discrete-label": "true (1)"}
{"entry-smiles": "COc1cc(-c2cc(F)cnc2OC)c(F)cc1-c1nccc2cc(S(=O)(=O)Nc3ccon3)ccc12", "discrete-label": "true (1)"}
{"entry-smiles": "COc1cc(-c2ccc(Cl)c(C)c2)c(F)cc1-c1nccc2cc(S(=O)(=O)Nc3ncccn3)ccc12", "discrete-label": "false (0)"}
{"entry-smiles": "COc1nc(N(C)CC(C)C)ccc1-c1nccc2cc(S(=O)(=O)Nc3ccncn3)ccc12", "discrete-label": "false (0)"}
{"entry-smiles": "COc1nc(N2CCCC2)ccc1-c1nccc2cc(S(=O)(=O)Nc3ccncn3)ccc12", "discrete-label": "false (0)"}

Request: Is it true that IC50 reported for COc1cc(-c2ccc(C)c(Cl)c2)c(F)cc1-c1nccc2cc(S(=O)(=O)Nc3ccon3)ccc12 is less than 70 nM?
Result: false (0)

Request: I wonder whether COc1cc(-c2ccc(Cl)c(F)c2)c(C#N)cc1-c1nccc2cc(S(=O)(=O)Nc3ccon3)ccc12 has IC50 below 70 nM. Can you tell?
Result: true (1)

Request: Please state whether IC50 is below 70 nM for COc1nc(OCC2CCCCC2)ccc1-c1nccc2cc(S(=O)(=O)Nc3ccncn3)ccc12
Result: false (0)

Request: IC50 strictly < 70 nM for this compound? COc1cc(-c2ccc(Cl)c(C)c2)c(C#N)cc1-c1nccc2cc(S(=O)(=O)Nc3ccon3)ccc12
Result: true (1)
